# tested-on: T1, human MSLN-R3-his protein (human, UniProt Q13421 487-598)
# T1 construct: Region 3 of human mesothelin, made in HEK293E cells, His-tagged; also called human MSLN-R3 protein; hMSLN-R3-his; not shown: His tag
# method-notes: ELISA on coated MSLN-R3; antibody 0.001 nM
readout-label: OD450

binder	val
S009-F8-33.12 (antibody, human IgG1, kappa, V domains shown) VH: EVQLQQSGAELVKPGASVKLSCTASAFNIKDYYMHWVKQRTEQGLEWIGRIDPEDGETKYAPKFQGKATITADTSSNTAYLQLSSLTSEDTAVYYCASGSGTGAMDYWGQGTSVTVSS VL: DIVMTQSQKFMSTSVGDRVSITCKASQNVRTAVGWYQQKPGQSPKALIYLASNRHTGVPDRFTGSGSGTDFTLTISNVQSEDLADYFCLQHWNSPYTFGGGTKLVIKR	0.04 OD450
S009-F8-5.15 (antibody, human IgG1, kappa, V domains shown) VH: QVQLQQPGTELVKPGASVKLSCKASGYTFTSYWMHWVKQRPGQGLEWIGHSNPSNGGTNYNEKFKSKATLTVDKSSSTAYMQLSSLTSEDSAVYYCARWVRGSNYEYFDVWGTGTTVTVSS VL: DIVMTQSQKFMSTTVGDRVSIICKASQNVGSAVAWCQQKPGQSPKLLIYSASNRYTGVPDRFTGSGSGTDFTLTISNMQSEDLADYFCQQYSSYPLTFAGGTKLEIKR	0.05 OD450
S009-F8-32.3 (antibody, human IgG1, kappa, V domains shown) VH: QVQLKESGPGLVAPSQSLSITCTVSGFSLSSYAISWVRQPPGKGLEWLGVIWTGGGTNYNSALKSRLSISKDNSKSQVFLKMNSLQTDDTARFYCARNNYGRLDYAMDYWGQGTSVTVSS VL: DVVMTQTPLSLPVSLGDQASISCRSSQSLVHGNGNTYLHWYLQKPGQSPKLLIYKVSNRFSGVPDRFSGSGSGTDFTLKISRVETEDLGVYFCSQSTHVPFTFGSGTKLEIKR	0.04 OD450
S009-F8-13.8 (antibody, human IgG1, kappa, V domains shown) VH: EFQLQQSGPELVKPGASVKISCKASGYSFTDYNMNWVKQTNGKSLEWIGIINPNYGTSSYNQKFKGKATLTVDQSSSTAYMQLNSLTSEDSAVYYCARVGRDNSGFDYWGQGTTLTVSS VL: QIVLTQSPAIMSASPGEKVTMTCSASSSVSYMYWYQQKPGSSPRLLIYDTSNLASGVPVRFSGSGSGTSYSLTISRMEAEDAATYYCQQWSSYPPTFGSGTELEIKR	0.05 OD450
S009-F8-36.12 (antibody, human IgG1, kappa, V domains shown) VH: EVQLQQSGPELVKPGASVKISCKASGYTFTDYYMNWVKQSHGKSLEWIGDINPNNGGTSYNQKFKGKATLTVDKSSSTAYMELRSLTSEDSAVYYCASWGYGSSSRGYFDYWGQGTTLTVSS VL: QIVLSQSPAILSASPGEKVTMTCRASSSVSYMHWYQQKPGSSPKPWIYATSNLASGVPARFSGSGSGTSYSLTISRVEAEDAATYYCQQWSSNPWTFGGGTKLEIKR	0.04 OD450

The measured values listed here are drawn from patent US20250250357A1.
